Kindly supply the reported C0 or Cmax values for the records listed here.
- testMethodNotes: Pharmacokinetic test in rats
- Type: in vivo, SD rats
- conditionParameters: rats, i.g. (3 mg/kg), plasma

| molecule | C0 or Cmax |
| --- | --- |
| Cc1nc(-c2nnn(C)c2CNC(=O)OC2CC(=C(F)F)C2)ccc1OCCC1(C(=O)O)CC1 (stereo not shown) [Compound 47] | 3060 ± 457 ng/mL |
| Cc1nc(-c2nnn(C)c2CNC(=O)OC2CC(=C(F)F)C2)ccc1O[C@H]1CCC[C@H](C(=O)O)C1 (stereo partly shown) [Compound 22] | 1630 ± 162 ng/mL |
| C=C1CC(N(C)C(=O)OCc2c(-c3ccc(OCC(C)(C)CC(=O)O)c(C)n3)nnn2C)C1 [Compound 29] | 739 ± 29 ng/mL |

# input Reported C0 or Cmax, molecule C=C1CC(OC(=O)NCc2c(-c3ccc(O[C@H]4CCC[C@H](C(=O)O)C4)c(C)n3)nnn2C)C1 [Compound 26] : ____
# output 1144 ± 145 ng/mL

----------
Kindly supply the reported AUC(0-t) values for the records listed here.
- testMethodNotes: Pharmacokinetic test in mice
- Format: in vivo, C57 mice
- conditionParameters: mouse, po; mice, i.g. (3 mg/kg), plasma
- Procedure: 2.1 Experimental animals: Male C57 mice, 20-25 g, 6 mice/compound, purchased from Chengdu Ddossy Experimental Animals Co., Ltd. 2.2 Experimental design: On the day of the experiment, the C57 mice were randomly grouped according to their body weights. The animals were fasted with water available for 12-14 h one day before the administration, and were fed 4 h after the administration. Table 2. Administration information […]

A selection of reference data follows.
| compound | dataValue |
| --- | --- |
| Cc1nc(-c2nnn(C)c2CNC(=O)OC2CC(=C(F)F)C2)ccc1O[C@H]1CCC[C@H](C(=O)O)C1 (some centres unmarked) [Compound 22] | 5610 ng·h/mL |
| Cc1nc(-c2nnn(C)c2CNC(=O)OC2CC(=C(F)F)C2)ccc1OCCC1(C(=O)O)CC1 (centres unmarked) [Compound 47] | 2740 ng·h/mL |

For every record below, what is its AUC(0-t)?
1. C=C1CC(OC(=O)NCc2c(-c3ccc(O[C@H]4CCC[C@H](C(=O)O)C4)c(C)n3)nnn2C)C1 [Compound 26]
2. C=C1CC(N(C)C(=O)OCc2c(-c3ccc(O[C@H]4CCC[C@H](C(=O)O)C4)c(C)n3)nnn2C)C1 [Compound 4]
3. Cc1nc(-c2nnn(C)c2COC(=O)N(C)C2CC(=C(F)F)C2)ccc1O[C@H]1CCC[C@H](C(=O)O)C1 (some centres unmarked) [Compound 12]

# output
1: 2290 ng·h/mL; 2: 2180 ng·h/mL; 3: 1450 ng·h/mL

----------
- testMethodNotes: Pharmacokinetic test in rats
- Format: in vivo, SD rats
- conditionParameters: rat, po; rats, i.g. (3 mg/kg), plasma
reportedEndpoint: AUC(0-t) (ng·h/mL)
Answers are plain numbers, in ng·h/mL.

For every record below, what is its AUC(0-t)?
1. Cc1nc(-c2nnn(C)c2CNC(=O)OC2CC(=C(F)F)C2)ccc1OCCC1(C(=O)O)CC1 (stereo not shown) [Compound 47]
2. C=C1CC(OC(=O)NCc2c(-c3ccc(O[C@H]4CCC[C@H](C(=O)O)C4)c(C)n3)nnn2C)C1 [Compound 26]
3. C=C1CC(N(C)C(=O)OCc2c(-c3ccc(OCC(C)(C)CC(=O)O)c(C)n3)nnn2C)C1 [Compound 29]
4. Cc1nc(-c2nnn(C)c2CNC(=O)OC2CC(=C(F)F)C2)ccc1O[C@H]1CCC[C@H](C(=O)O)C1 (stereo partly shown) [Compound 22]

# output
[12600, 2880, 2540, 6710]
